Assay: Antioxidant activity assessed as super oxide scavenging activity after 150 mins by spectrophotometric analysis
Assay type: functional
Set-up: concentration or dose not given beside the values
Response key: label 1 means Activity >= 40%; label 0 means Activity < 40%.

Some solved entries appear below for comparison.
Cc1[nH]nc2c1c(=O)[nH]c1ccccc12 ... label 0
Cc1cc(C(C)(C)C)c(O)c(C(C)(C)C)c1 ... label 1
COc1ccc(O)c(C(C)(C)C)c1.COc1ccc(O)cc1C(C)(C)C ... label 1
CC1=NNC(=S)Nc2c1c(=O)[nH]c1ccccc21 ... label 1
Cc1noc2c1c(=O)[nH]c1ccccc12 ... label 0

Please indicate if the recorded Activity for Cc1nc(=O)[nH]c2c1c(=O)[nH]c1ccccc12 meets or exceeds 40%.
label 0

Also Cc1nc(=S)[nH]c2c1c(=O)[nH]c1ccccc12 ?
label 0

* * *

Assay: Toxicity in po dosed Wistar rat
Type: organism-based
Settings: in vivo
observed-property: MTD (mg/kg)
Answers are plain numbers, in mg/kg.

CC1=NNC(=S)Nc2c1c(=O)[nH]c1ccccc21 ... 2000

Lab note: next compound to report on.
I'd like to know its MTD. The compound in question is Cc1nc(=O)[nH]c2c1c(=O)[nH]c1ccccc12
2000

Reference for the values: ChEMBL document CHEMBL1287668
